- target-entity: T1, DGI-2 polypeptide (UniProt Q15004 1-111, limits assumed)
- T1 construct: Soluble recombinant protein coated at 500 ng/well; vector tag of pIVEX2.3-MCS not described for this construct; also called KIAA0101
- T1 sequence (looked up): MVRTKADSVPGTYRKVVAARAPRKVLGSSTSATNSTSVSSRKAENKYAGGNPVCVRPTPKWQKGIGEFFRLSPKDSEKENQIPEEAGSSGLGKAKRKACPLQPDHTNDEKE
- procedure-details: phage ELISA
Below: a set of entries, each annotated with reported DGI-2 (OD).
Answer format: numeric, OD implied, no suffix.

Previously resolved entries follow.
VCSGGKGTWLEIPDRVRSSTAAAGAPVPYPDPLEPRP [DGI-2-20F-PP-A22] :: 3.3
GGDLGEQGVQLCPDVVRGGSLAAAGAPVPYPDPLEPRP [DGI-2-20F-PP-A7] :: 2.6

Attention now shifts to the item below.
Challenge: Dear colleague, I am looking for the recorded DGI-2 (OD) of the following binder: LLLPVRWRDAQPRSLLMEWIAAAGAPVPYPDPLEPRP [DGI-2-20F-PP-F8]
Response given: 2

Hey, just so you know, these numbers are from patent US7056679.
